All figures here come from patent US9174991B2.

- condition: 5% to 12% relative humidity, dark, air, 9 d; measured 9% (Form A 6%), 24° C.
Reported HPLC-purity (10.5 min) values for a set of compounds
quantity_name: HPLC-purity (10.5 min)

1. Nc1nc(O)c2c(CCc3ccc(C(=O)N[C@@H](CCC(=O)O)C(=O)O)cc3)c[nH]c2n1 [Heptahydrate] | 99.86%
2. Nc1nc(O)c2c(CCc3ccc(C(=O)N[C@@H](CCC(=O)O)C(=O)O)cc3)c[nH]c2n1 [2.5 hydrate] | 99.90%
3. Nc1nc(O)c2c(CCc3ccc(C(=O)N[C@@H](CCC(=O)O)C(=O)O)cc3)c[nH]c2n1 [Form IV] | 99.83%
4. Nc1nc(O)c2c(CCc3ccc(C(=O)N[C@@H](CCC(=O)O)C(=O)O)cc3)c[nH]c2n1 [Form A] | 99.58%

====

Reported HPLC-purity values for the following compounds.
- condition: 27% to 33% relative humidity, dark, air, 16 d; measured 30.4% (Form A 28.7%), 24° C.
quantity_name: HPLC-purity (%)

1) Nc1nc(O)c2c(CCc3ccc(C(=O)N[C@@H](CCC(=O)O)C(=O)O)cc3)c[nH]c2n1 [Form IV] | 99.86
2) Nc1nc(O)c2c(CCc3ccc(C(=O)N[C@@H](CCC(=O)O)C(=O)O)cc3)c[nH]c2n1 [Heptahydrate] | 99.91
3) Nc1nc(O)c2c(CCc3ccc(C(=O)N[C@@H](CCC(=O)O)C(=O)O)cc3)c[nH]c2n1 [Form A] | 99.69
4) Nc1nc(O)c2c(CCc3ccc(C(=O)N[C@@H](CCC(=O)O)C(=O)O)cc3)c[nH]c2n1 [2.5 hydrate] | 99.64

====

- condition: 60% to 70% relative humidity, dark, air, 16 d; measured 66.9% (Form A 67.2%), 24° C.
quantity_name: HPLC-purity

1. Nc1nc(O)c2c(CCc3ccc(C(=O)N[C@@H](CCC(=O)O)C(=O)O)cc3)c[nH]c2n1 [Form IV] | 99.81%
2. Nc1nc(O)c2c(CCc3ccc(C(=O)N[C@@H](CCC(=O)O)C(=O)O)cc3)c[nH]c2n1 [2.5 hydrate] | 99.83%
3. Nc1nc(O)c2c(CCc3ccc(C(=O)N[C@@H](CCC(=O)O)C(=O)O)cc3)c[nH]c2n1 [Form A] | 99.72%
4. Nc1nc(O)c2c(CCc3ccc(C(=O)N[C@@H](CCC(=O)O)C(=O)O)cc3)c[nH]c2n1 [Heptahydrate] | 99.90%

====

- condition: 60% to 70% relative humidity, dark, air, 5 d; measured 63% (Form A 57%), 24° C.
quantity_name: PXRD

1. Nc1nc(O)c2c(CCc3ccc(C(=O)N[C@@H](CCC(=O)O)C(=O)O)cc3)c[nH]c2n1 [2.5 hydrate] | Heptahydrate
2. Nc1nc(O)c2c(CCc3ccc(C(=O)N[C@@H](CCC(=O)O)C(=O)O)cc3)c[nH]c2n1 [Heptahydrate] | Heptahydrate
3. Nc1nc(O)c2c(CCc3ccc(C(=O)N[C@@H](CCC(=O)O)C(=O)O)cc3)c[nH]c2n1 [Form IV] | Heptahydrate

====

- condition: double PE plastic bags, daylight, 20° C. to 25° C., 15 d
Let's look at some molecules and their measured HPLC-purity.
quantity_name: HPLC-purity (%)

1. Nc1nc(O)c2c(CCc3ccc(C(=O)N[C@@H](CCC(=O)O)C(=O)O)cc3)c[nH]c2n1 [Form IV] | 99.44
2. Nc1nc(O)c2c(CCc3ccc(C(=O)N[C@@H](CCC(=O)O)C(=O)O)cc3)c[nH]c2n1 [Form A] | 95.83
3. Nc1nc(O)c2c(CCc3ccc(C(=O)N[C@@H](CCC(=O)O)C(=O)O)cc3)c[nH]c2n1 [Heptahydrate] | 99.65
4. Nc1nc(O)c2c(CCc3ccc(C(=O)N[C@@H](CCC(=O)O)C(=O)O)cc3)c[nH]c2n1 [2.5 hydrate] | 99.74
